METHOD_SUMMARY: Kinetic solubility of compound in simulated gastric fluid at pH 1.2 measured after 24 hrs by HPLC analysis
Type: physicochemical
TEST_CONTEXT: read-out: Kinetic_solubility
MEASURED_PROPERTY: solubility kinetic at 24 h

C[C@H](NC(=O)c1c(Cc2cccc(C(F)(F)F)c2)sc2c1CCOC2)c1ccc(C(=O)O)cc1 = < 1 µM

Output solubility kinetic at 24 h of "O=C(O)c1ccc(CNC(=O)c2c(Cc3ccc(F)cc3)sc3c2CCOC3)cc1"
2.97 µM

---

METHOD_SUMMARY: Cmax in BALB/c mouse at 1 mg/kg, iv measured upto 24 hrs by LC-MS/MS analysis
Assay type: ADME, organism-based
Parameters: time < 24 hrs, dose 1 mg/kg, route iv
TEST_CONTEXT: in vivo
Listing: Cmax of selected molecules

C[C@H](NC(=O)c1c(Cc2cccc(C(F)(F)F)c2)sc2c1CCOC2)c1ccc(C(=O)O)cc1 = 2.8 µg/mL

Turning now to a further record.
Output Cmax of "O=C(O)c1ccc(CNC(=O)c2c(Cc3ccc(F)cc3)sc3c2CCOC3)cc1"
2.84 µg/mL
